target: HLA-C*03:03; test: IEDB peptide-MHC binding, purified MHC/direct/fluorescence; filed as Kd, often an IC50 or EC50 that approximates it; bounds were set here for any values at or beyond the usual limits of such assays; conditions: source organism: Orthomarburgvirus marburgense
Assay endpoint: Kd

Fill blank: measured Kd of the sequence "FLLDYEGTL" is ____. ≤ 1 nM

---

target: HLA-A*24:03; assay: IEDB peptide-MHC binding, purified MHC/direct/fluorescence; filed as Kd, often an IC50 or EC50 that approximates it; bounds were set here for any values at or beyond the usual limits of such assays; details: source organism: Influenza A virus (A/goose/Guangxi/1097/2004(H5N1))
pKd: −log10 of the molar value.
Assay endpoint: pKd

What does the record list as pKd for "KYTSGRQEK" ? ≤ 4.70
